# System: Human papillomavirus type 1a protein E7 (residues 44-93)
# measurement_protocol: HPV1a E7 fragment binders on microarrays, primary screen, biochemical, small-molecule microarray, residues 44-93, 635 nm fluorescence (AID 1108);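 also: E7 fragment applied at 1 µg/mL in TBST for 1 h at 4 C; score combines spot fluorescence with its signal to noise ratio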
# test_conditions: small-molecule microarray binding, fluorescence 635 nm; higher = more signal
readout_label: composite z-score
Just the number.

Recorded results for 3 molecules are shown here.
molecule	composite z-score
CC(C)(C)N1CC=CC23O[C@@H]4/C=C\CCCOC(=O)C4[C@H]2C(=O)N(CCO)[C@@H]3C1=O (stereo partly drawn)	-0.365
[N-]=[N+]=NCc1ccccc1C[C@@]1(C(=O)NCC(O)CO)N=C(c2ccc(OCCCO)cc2)O[C@@H]1c1ccccc1CN=[N+]=[N-] (stereo partly drawn)	1.06
CCOC(=O)C1=CC[C@@H](c2ccccc2Cl)N(S(=O)(=O)c2ccc(C)cc2)C1	0.948

Data request: Please look at this molecule and report its composite z-score: O=C(CCN1CCOCC1)c1cccc(O)c1
Data returned: 0.591

Data request: Please look at this molecule and report its composite z-score: CCOC(=O)C1=CCC(c2ccc(C#N)cc2)N(S(=O)(=O)c2ccc(C)cc2)C1 (stereo not drawn)
Data returned: -0.437

Data request: Please look at this molecule and report its composite z-score: C=C(CCCC)/C(=C/C[C@H](OC(C)=O)c1ccc(CO)o1)c1cnc2ccccc2c1
Data returned: 1.39

Data request: Please look at this molecule and report its composite z-score: CCCCC(CC)C(O)C1C=CC2C(=O)N(c3ccccc3)C(=O)C2N1Nc1ccccc1 (stereo not drawn)
Data returned: 1.33

Data request: Please look at this molecule and report its composite z-score: COCCCNC(=O)[C@@]1(C)c2ccccc2C(=O)N(Cc2cc(C(F)(F)F)cc(C(F)(F)F)c2)[C@H]1c1ccc(CO)cc1
Data returned: 1.32

Data request: Please look at this molecule and report its composite z-score: O=C1O[C@H](c2ccccc2)[C@H](c2ccccc2)N2[C@H]1[C@@H](C(=O)NC[C@H](O)c1ccccc1)[C@]1(C(=O)Nc3ccc(C#CCCO)cc31)[C@H]2c1ccc(O)cc1
Data returned: -0.453

Data request: Please look at this molecule and report its composite z-score: COC(=O)[C@@]1(Cc2ccc(OC)cc2)[C@H]2c3cc(C(=O)N4CCCC4)n(CCc4c[nH]c5cc(F)ccc45)c3C[C@H]2CN1C(=O)c1ccccc1
Data returned: 0.991

Data request: Please look at this molecule and report its composite z-score: O=c1cccc(C=Cc2ccccc2)o1
Data returned: -0.64

Data request: Please look at this molecule and report its composite z-score: O=C1C2C=CC(C(O)c3ccc(F)cc3)N(Nc3ccccc3)C2C(=O)N1c1ccccc1 (stereo not drawn)
Data returned: 1.42

Data request: Please look at this molecule and report its composite z-score: CC(C)c1ccc(NN2C(C(O)c3c(F)cccc3Cl)C=CC3C(=O)N(c4ccccc4)C(=O)C32)cc1 (stereo not drawn)
Data returned: 1.23

---

// reported composite z-score per item
# Test system: Wnt5a (protein binding on small-molecule microarray)
# measurement_protocol: Wnt5a binders on small-molecule microarray, primary screen, biophysical, 635/667 nm fluorescence (AID 1142);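 also: fluorescence read at 667 nm with signal to noise per printed feature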
# test_conditions: 635 nm fluorescence, higher = more signal
Just the number.

Recorded results for 3 compounds are shown here.
compound	composite z-score
CN(C)C(=O)[C@]1(CCC(=O)OC(C)(C)C)N=C(c2ccc(OCCCO)cc2)O[C@@H]1c1ccccc1N=[N+]=[N-]	0.928
CCC[C@@H]1C=C(C(=O)O)[C@H](c2ccc(C)cc2)N1S(=O)(=O)c1ccc(C)cc1	0.0266
COC(=O)C[C@H]1O[C@]2(C(=O)N(Cc3ccccc3)c3ccc(NC(C)=O)cc32)[C@@H](C)[C@@H]1[Si](C)(C)c1ccc(OC)cc1	0.0998

Next compound, please.
Data request: Please look at this compound and report its composite z-score: CCOC(=O)C1=CC[C@@H](c2ccccc2Cl)N(S(=O)(=O)c2ccc(C)cc2)C1
Data returned: 0.149
